- System: interferon (α)
- PROTOCOL: Cytokine induction in human cells: interferon (α) by ELISA
- Type: cell-based
- ASSAY_CONTEXT: Homo sapiens, PBMC, human PBMCs, 18 to 24 hours incubation, ELISA of culture supernatant; read-out: Lowest Effective Concentration (μM) Interferon
OBSERVATION_TYPE: minimal effective concentration (µM)

CCOCc1nc2c(N)nc3ccccc3c2n1CCNS(=O)(=O)N(C)C [Example 217] ... 1
COCCc1nc2c(N)nc3ccccc3c2n1CCCCNS(=O)(=O)c1c(C)noc1C [Example 123] ... 0.0001
CCCCc1nc2c(N)nc3ccccc3c2n1CCCCNS(=O)(=O)c1ccc(C)c([N+](=O)[O-])c1 [Example 97] ... 0.1
COCCc1nc2c(N)nc3ccccc3c2n1CCCCNS(=O)(=O)N[C@H](C)c1ccccc1 [Example 226] ... 0.0001
CCCCc1nc2c(N)nc3ccccc3c2n1CCCCNS(=O)(=O)c1cccc2cnccc12 [Example 11] ... 0.01
CC(C)S(=O)(=O)NCCCCn1cnc2c(N)nc3c(c21)CCCC3 [Example 55] ... 3.33
CCCCc1nc2c(N)nc3ccccc3c2n1CCNS(=O)(=O)c1cccc2ccccc12 [Example 31] ... 1.11
CCCCc1ccc(S(=O)(=O)NCCCCn2c(CCCC)nc3c(N)nc4ccccc4c32)cc1 [Example 98] ... 1
CCCCc1nc2c(N)nc3ccccc3c2n1CCCCNS(=O)(=O)c1cccc(F)c1 [Example 95] ... 0.001
COCCc1nc2c(N)nc3ccccc3c2n1CCCCNS(=O)(=O)Cc1ccccc1[N+](=O)[O-] [Example 138] ... 0.0001
CCCCc1nc2c(N)nc3ccccc3c2n1CCCCNS(=O)(=O)c1c(C)noc1C [Example 94] ... 0.001
CCCCc1nc2c(N)nc3ccccc3c2n1CCCCNS(=O)(=O)CCCC [Example 74] ... 0.001
CCCCc1nc2c(N)nc3ccccc3c2n1CCCCNS(=O)(=O)c1cccc2ccccc12 [Example 41] ... 0.01
Cc1ccc(S(=O)(=O)NCCCCn2cnc3c(N)nc4c(c32)CCCC4)cc1 [Example 64] ... 3.33
COCCc1nc2c(N)nc3ccccc3c2n1CCCCNS(=O)(=O)C[C@@]12CCC(CC1=O)C2(C)C [Example 200] ... 0.01
Nc1nc2c(c3c1ncn3CCCCNS(=O)(=O)c1ccc(I)cc1)CCCC2 [Example 61] ... 3.33

====

- Test system: interferon (α)
- PROTOCOL: Cytokine induction in human cells: interferon (α) by ELISA
- Format: cell-based
- ASSAY_CONTEXT: Homo sapiens, PBMC, human PBMCs, 18 to 24 hours incubation, ELISA of culture supernatant; read-out: Lowest Effective Concentration (μM) Interferon
minimal effective concentration listing for selected molecules.
OBSERVATION_TYPE: minimal effective concentration

COCCc1nc2c(N)nc3ccccc3c2n1CCCCNS(C)(=O)=O [Example 111] ... 0.001 µM
CCCCc1nc2c(N)nc3ccccc3c2n1CCNS(=O)(=O)c1ccc(Br)cc1 [Example 21] ... 1.11 µM
COCCc1nc2c(N)nc3ccccc3c2n1CCCCNS(=O)(=O)c1ccc(S(C)(=O)=O)cc1 [Example 161] ... 0.01 µM
CCCCc1nc2c(N)nc3ccccc3c2n1CCCCNS(=O)(=O)c1c(C)c(C)c(C)c(C)c1C [Example 107] ... 1 µM
CCCCc1nc2c(N)nc3ccccc3c2n1CCCCNS(=O)(=O)c1ccc(Cl)cc1Cl [Example 92] ... 0.1 µM
CCCCS(=O)(=O)NCCCCn1c(CCOC)nc2c(N)nc3c(c21)CCCC3 [Example 209] ... 0.0001 µM
CCCS(=O)(=O)NCCCCn1c(CCOC)nc2c(N)nc3ccccc3c21 [Example 116] ... 0.001 µM
Nc1nc2c(c3c1ncn3CCCCNS(=O)(=O)c1ccc(Cl)c(Cl)c1)CCCC2 [Example 60] ... > 30 µM
CCCCc1nc2c(N)nc3ccccc3c2n1CCCCNS(=O)(=O)c1cc(Cl)ccc1OC [Example 100] ... 0.01 µM
CCCCc1nc2c(N)nc3ccccc3c2n1CCCCNS(=O)(=O)c1sc(NC(C)=O)nc1C [Example 77] ... 0.001 µM
CCCCc1nc2c(N)nc3ccccc3c2n1CCCCNS(=O)(=O)c1ccccc1Br [Example 78] ... 0.001 µM
CCOCc1nc2c(N)nc3ccccc3c2n1CCNS(=O)(=O)c1cccc2c(N(C)C)cccc12 [Example 110] ... 10 µM
COCCc1nc2c(N)nc3ccccc3c2n1CCCCNS(=O)(=O)N1CCCC1 [Example 229] ... 0.0001 µM
COCCc1nc2c(N)nc3ccccc3c2n1CCCCNS(=O)(=O)c1ccc(OC(F)(F)F)cc1 [Example 154] ... 0.001 µM
CCCCc1nc2c(N)nc3ccccc3c2n1CCCCNS(=O)(=O)c1cccc(OC)c1 [Example 104] ... 0.01 µM
CCCCc1nc2c(N)nc3ccccc3c2n1CCCCNS(=O)(=O)CCC [Example 51] ... 0.0015 µM
CCCCc1nc2c(N)nc3ccccc3c2n1CCCCNS(=O)(=O)c1ccc(Cl)c(Cl)c1 [Example 48] ... 0.37 µM

====

- Tested on: interferon (α)
- PROTOCOL: Cytokine induction in human cells: interferon (α) by ELISA
- Assay type: cell-based
- ASSAY_CONTEXT: Homo sapiens, PBMC, human PBMCs, 18 to 24 hours incubation, ELISA of culture supernatant; read-out: Lowest Effective Concentration (μM) Interferon
minimal effective concentration listing for selected compounds.
OBSERVATION_TYPE: minimal effective concentration (µM)

CCCCc1nc2c(N)nc3ccccc3c2n1CCNS(=O)(=O)Cc1ccccc1 ... 1.11
CCCCc1nc2c(N)nc3ccccc3c2n1CCCCNS(=O)(=O)c1ccccc1OC(F)(F)F ... 0.01
CCCCc1nc2c(N)nc3ccccc3c2n1CCCCNS(=O)(=O)c1ccc(C(C)(C)C)cc1 ... 0.37
CCOCc1nc2c(N)nc3ccccc3c2n1CCNS(=O)(=O)c1cccs1 ... 1
COCCc1nc2c(N)nc3ccccc3c2n1CCCCNS(=O)(=O)c1ccc(C)cc1 ... 0.0001
CCCCCCCCS(=O)(=O)NCCn1c(CCCC)nc2c(N)nc3ccccc3c21 ... 3.33
Nc1nc2c(c3c1ncn3CCCCNS(=O)(=O)c1cccc3cccnc13)CCCC2 ... 10
COCCc1nc2c(N)nc3ccccc3c2n1CCCCNS(=O)(=O)c1cccc2c(N(C)C)cccc12 ... 0.01
Nc1nc2c(c3c1ncn3CCCCNS(=O)(=O)/C=C/c1ccccc1)CCCC2 ... 10
CCCCc1nc2c(N)nc3ccccc3c2n1CCCCNS(=O)(=O)C[C@]12CC[C@@H](CC1=O)C2(C)C ... 0.001
CCCCc1nc2c(N)nc3ccccc3c2n1CCCCNS(=O)(=O)C(F)(F)F ... 0.01
COCCc1nc2c(N)nc3c(c2n1CCCCNS(=O)(=O)Cc1ccccc1)CCCC3 ... 0.0001
CCCCc1nc2c(N)nc3ccccc3c2n1CCCCNS(=O)(=O)c1ccc(Cl)c([N+](=O)[O-])c1 ... 0.01
CCCCc1nc2c(N)nc3c(c2n1CCCCNS(=O)(=O)Cc1ccccc1)CCCC3 ... 0.0001
CCCCc1nc2c(N)nc3ccccc3c2n1CCCCNS(=O)(=O)C[C@]12CC[C@H](CC1=O)C2(C)C ... 0.001
CCCCS(=O)(=O)NCCCCn1cnc2c(N)nc3ccccc3c21 ... 10
COCCc1nc2c(N)nc3ccccc3c2n1CCCCNS(=O)(=O)c1ccccc1 ... 0.0001

====

- System: interferon (α)
- PROTOCOL: Cytokine induction in human cells: interferon (α) by ELISA
- Type: cell-based
- ASSAY_CONTEXT: Homo sapiens, PBMC, human PBMCs, 18 to 24 hours incubation, ELISA of culture supernatant; read-out: Lowest Effective Concentration (μM) Interferon
OBSERVATION_TYPE: minimal effective concentration

COCCc1nc2c(N)nc3c(c2n1CCCCNS(=O)(=O)c1ccccc1)CCCC3 [Example 210] ... 0.0001 µM
CCCS(=O)(=O)NCCCCn1cnc2c(N)nc3c(c21)CCCC3 [Example 54] ... 10 µM
CCCCc1nc2c(N)nc3ccccc3c2n1CCCCNS(=O)(=O)C(C)C [Example 38] ... 0.0015 µM
CCCCc1nc2c(N)nc3c(c2n1CCCCNS(=O)(=O)N(C)C)CCCC3 [Example 220] ... 0.0001 µM
Nc1nc2c(c3c1ncn3CCCCNS(=O)(=O)Cc1ccccc1)CCCC2 [Example 67] ... 10 µM

====

Counter-ions that a name gives are not always drawn.
OBSERVATION_TYPE: melting point

CCCCc1nc2c(N)nc3ccccc3c2n1CCCCNS(=O)(=O)c1ccccc1 ... 75.5 to 79 °C
CCCCc1nc2c(N)nc3ccccc3c2n1CCCCNS(=O)(=O)c1cccc([N+](=O)[O-])c1 (as salt: hydrochloride) ... 176 to 178.2 °C
CCCCc1nc2c(N)nc3ccccc3c2n1CCCCNS(=O)(=O)Cc1ccccc1 ... 197 to 199.5 °C
COc1ccc(Cc2nc3c(N)nc4ccccc4c3n2CCCCNS(C)(=O)=O)cc1 ... 78.1 to 79.5 °C
CCCCc1nc2c(N)nc3ccccc3c2n1CCCCNS(=O)(=O)c1cccc2cnccc12 ... 96 °C (dec.)
CCCCc1nc2c(N)nc3ccccc3c2n1CCCCNS(=O)(=O)c1ccc([N+](=O)[O-])cc1 (as salt: hydrochloride) ... 96 °C (dec.)
CN(C)c1cccc2c(S(=O)(=O)NCCCCn3cnc4c(N)nc5ccccc5c43)cccc12 ... 200 to 201 °C
CCCCc1nc2c(N)nc3ccccc3c2n1CCCCNS(=O)(=O)c1cccs1 ... 137.5 to 141.5 °C
CCCCc1nc2c(N)nc3ccccc3c2n1CCCCNS(=O)(=O)c1cccc(N)c1 (as salt: hydrochloride) ... 110.2 °C (dec.)
COCCc1nc2c(N)nc3c(c2n1CCCCNS(=O)(=O)c1ccc(F)cc1)CCCC3 ... 191 to 193 °C
CCCCc1nc2c(N)nc3ccccc3c2n1CCCCNS(=O)(=O)c1ccc(N)cc1 (as salt: hydrochloride) ... 203.1 to 205 °C
CCCCc1nc2c(N)nc3ccccc3c2n1CCCCNS(=O)(=O)c1cccc2c(N(C)C)cccc12 ... 223 to 224 °C
Nc1nc2ccccc2c2c1nc(-c1ccccc1)n2CCCCNS(=O)(=O)c1ccc(F)cc1 ... 214 to 216 °C
CS(=O)(=O)NCCCCn1c(-c2ccccc2)nc2c(N)nc3ccccc3c21 ... 234 to 235 °C
